# SUBJECT_OF_TEST: T1, mouse TF ECD-His6 (mouse, UniProt P20352 29-251)
# T1 construct: Expi293-derived; also called TF-His; mTF
# PROTOCOL_NOTES: BLI (ForteBio Octet)
EXPERIMENTAL_ENDPOINT: Kd

Sample 25A3 (antibody, human IgG1, V domains shown, Human IgG1; also called antibody designated 25A3) VH: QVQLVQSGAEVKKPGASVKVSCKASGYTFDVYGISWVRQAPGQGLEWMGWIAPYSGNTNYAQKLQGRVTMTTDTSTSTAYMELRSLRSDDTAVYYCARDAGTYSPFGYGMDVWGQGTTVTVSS VL: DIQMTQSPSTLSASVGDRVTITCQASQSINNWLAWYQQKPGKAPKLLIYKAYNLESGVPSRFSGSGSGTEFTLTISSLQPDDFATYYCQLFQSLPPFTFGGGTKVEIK — what was its Kd?
131 nM

Subsequent entry: 25A5 (antibody, human IgG1, V domains shown, Human IgG1; also called antibody designated 25A5) VH: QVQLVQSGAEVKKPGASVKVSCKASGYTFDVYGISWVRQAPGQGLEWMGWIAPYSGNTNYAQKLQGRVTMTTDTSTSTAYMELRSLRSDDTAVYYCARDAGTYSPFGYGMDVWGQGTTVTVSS VL: DIQMTQSPSTLSASVGDRVTITCRASESISNWLAWYQQKPGKAPKLLIYKAYSLEYGVPSRFSGSGSGTEFTLTISSLQPDDFATYYCQQFQKLPPFTFGGGTKVEIK
188 nM

Subsequent entry: 25G1 (antibody, human IgG1, V domains shown, Human IgG1; also called antibody designated 25G1) VH: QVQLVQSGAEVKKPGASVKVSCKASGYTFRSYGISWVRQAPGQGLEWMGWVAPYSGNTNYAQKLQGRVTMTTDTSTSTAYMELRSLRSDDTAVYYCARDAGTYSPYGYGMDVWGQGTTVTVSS VL: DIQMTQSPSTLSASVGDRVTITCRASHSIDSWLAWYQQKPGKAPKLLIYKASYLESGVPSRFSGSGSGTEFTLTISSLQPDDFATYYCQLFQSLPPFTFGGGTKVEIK
34.2 nM

All figures here come from patent US20250361322A1.
